# key: entry, value: AD50
# study_target: Kappa-type opioid receptor (Mus musculus)
# procedure_summary: Antagonist activity towards U50 488 induced kappa opioid receptor by mouse writhing assay at 2.5 mg/kg subcutaneously
# Type: functional, organism-based
# Parameters: dose 2.5 mg/kg

{"smiles_string": "C[C@H]1CN(CCC2CCCCC2)CC[C@@]1(C)c1cccc(O)c1", "AD50, mg/kg": 0.12}
{"smiles_string": "C[C@H]1CN(CCCc2ccsc2)CC[C@@]1(C)c1cccc(O)c1", "AD50, mg/kg": 0.24}
{"smiles_string": "C[C@H]1CN(CCCc2ccccc2)CC[C@@]1(C)c1cccc(O)c1", "AD50, mg/kg": 5.3}
{"smiles_string": "C[C@H]1CN(CCC(=O)C2CCCCC2)CC[C@@]1(C)c1cccc(O)c1", "AD50, mg/kg": 0.26}
